Attribution: the supplement of paper PMC9170038

apparent KD of MS2 coat protein values for the sequences below.
system: MS2 coat protein; experiment: apparent KD of MS2 coat protein, switch ON state; designed switch direction (-1 OFF switch, 1 ON switch): 1; higher = weaker reporter binding; conditions: FMN input: 0 or 200 uM; Eterna round: R93 (includes R88 designs)
Field: numeric (nM). Do not append units.

See these solved cases before continuing.
Noted for AAAAAAAAAGUCGAGGAUAUCCACAUGGUGACAUGAGGAUCACCCAUGUGAAGAAAAGCACAUGAGGAGAAGGCGACAAAAAAAA [Same State 2.7b (Tightrope mod)] : its apparent KD of MS2 coat protein reads 135

So, GAAAAACAUGAGGAUCACCCAUGUGAGAAUAUGGAAGGAUAUACAAAGACGAAAGUCAAAGUAGAAGGUCUAAAAG [Mat - Same State 1 - Eli mod - D15] ? Its apparent KD of MS2 coat protein was 28.9

Input AGAAAUAAAACACAGGAUAUCCAAAAUAAAACAUGAGGAUCACCCAUGUAAAAUAAAAUAAAAUGGGAGAAGGGUGAAAAUAAAG [Mat - Same State 2 - JL mod - D10] . Output apparent KD of MS2 coat protein: 25.3

Lookup result for ACUACACAUGAGGAUCACCCAUGUCAGGUGGGACUAGGAUAUUAUAAACCAGAGUAAUUAUAAGAAGGAGUAGAAA [JR_SS001_Sub307] ; measured apparent KD of MS2 coat protein: 32.6

More entries:
Memo: AAAAGACAUGAGGAUCACCCAUGUCAAAACGUAGGAGGAUAUGUAUGGAAAACAUGCUGUACAGAAGGCCUGUGUC [SS1 - 28] , reported apparent KD of MS2 coat protein: 14.2

The recorded apparent KD of MS2 coat protein for entry AAGAAAAAAAGGCAGGAUAUCCAAAAAAAAACAUGAGGAUCACCCAUGUAAAAAUAAAAAAAAUGGGAGAAGGGCCAAAAAAGAA [Mat - Same State 2 - Mod - 154] equals 13.8

Sample AGGAAACAUGAGGAUCACCCAUGUAAAAAAUAGGGAGGAUAUACUAGAAGAAACAAAAUAGUAGAAGGUCCAAAAA [75%, Ex sub1, 24] ; apparent KD of MS2 coat protein observed: 18.4

Entry AAUAUACAUGAGGAUCACCCAUGUGAAAAUAUGGGAGGAUAUCGGAAAAAAAAAAAAAAACGAGAAGGCCCAAAAA [SS! 1 MT 13] , apparent KD of MS2 coat protein reported as 20.8

Given item UGGAAGGAGAGAGAGGAUAUCCAAAGGAAAACAUGAGGAUCACCCAUGUAGAAGGUAGGAAAUUGGGAGAAGGCUCAAGAGAGAG [salish99-ss2-117] , the value recorded as its apparent KD of MS2 coat protein is 17

Data point: AGAAAUAAAAGAGAGGAUAUCUCAAAGAAAACAUGAGGAUCACCCAUGUAAAAGAAAAUAAAAUGGGAGAAGGCUCAUAAUAAAG [JL Skelter Mod 5 In the Red] ; apparent KD of MS2 coat protein = 54.3
